Target: reuptake of noradrenaline (NA) in synaptosomes (Rattus norvegicus, UniProt Q63380)
Construct: in synaptosomes as described in WO 97/16451; from tissue; host or cells: synaptosomes (brain tissue)
Sequence (Q63380 1-617): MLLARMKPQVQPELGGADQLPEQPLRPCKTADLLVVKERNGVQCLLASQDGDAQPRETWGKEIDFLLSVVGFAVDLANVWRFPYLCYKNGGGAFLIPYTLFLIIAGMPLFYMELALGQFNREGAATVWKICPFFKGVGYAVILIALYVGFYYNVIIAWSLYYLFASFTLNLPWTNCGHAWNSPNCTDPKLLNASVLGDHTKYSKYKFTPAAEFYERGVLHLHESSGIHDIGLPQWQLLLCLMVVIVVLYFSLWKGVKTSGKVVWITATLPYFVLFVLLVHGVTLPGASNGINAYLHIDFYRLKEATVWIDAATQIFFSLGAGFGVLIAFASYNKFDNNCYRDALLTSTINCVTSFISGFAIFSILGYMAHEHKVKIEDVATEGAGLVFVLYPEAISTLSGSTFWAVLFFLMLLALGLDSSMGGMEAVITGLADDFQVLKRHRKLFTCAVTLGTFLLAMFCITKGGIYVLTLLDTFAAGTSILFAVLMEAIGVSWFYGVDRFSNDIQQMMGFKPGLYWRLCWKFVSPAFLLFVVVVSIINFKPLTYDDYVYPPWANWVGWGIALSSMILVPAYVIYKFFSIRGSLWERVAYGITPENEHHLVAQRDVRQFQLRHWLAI
Test: Inhibition of noradrenaline (NA) reuptake in synaptosomes
Assay type: biochemical
Details: synaptosomes, 3H-NA; read-out: NA-uptake IC50
PROPERTY_LABEL: pIC50
On this scale, pIC50 is minus log10 of a concentration expressed in M (mol/L).

Which pIC50 is listed for CN1C2CCCC1CN(c1ccc3cc(O)ccc3c1)C2 [3rd compound of Method C] ?
6.96

----------
Target: reuptake of noradrenaline (NA) in synaptosomes (Rattus norvegicus, UniProt Q63380)
Construct: in synaptosomes as described in WO 97/16451; from tissue; host or cells: synaptosomes (brain tissue)
Assay: Inhibition of noradrenaline (NA) reuptake in synaptosomes
Format: biochemical
Collected IC50 values appear next to each entry.
Write the value in µM as a bare number.

{"COMPOUND": "Clc1ccc(N2CC3CCCC(C2)N3)cc1Cl [1st compound of Method B]", "IC50 (µM)": 0.0074}

Which IC50 is listed for COc1ccc2cc(N3CC4CCCC(C3)N4C)ccc2c1 [1st compound of Method C] ?
0.019

----------
Target: reuptake of serotonine (5-HT) in synaptosomes (Rattus norvegicus)
Construct: in synaptosomes as described in WO 97/16451
Sequence (P31652 whole entry): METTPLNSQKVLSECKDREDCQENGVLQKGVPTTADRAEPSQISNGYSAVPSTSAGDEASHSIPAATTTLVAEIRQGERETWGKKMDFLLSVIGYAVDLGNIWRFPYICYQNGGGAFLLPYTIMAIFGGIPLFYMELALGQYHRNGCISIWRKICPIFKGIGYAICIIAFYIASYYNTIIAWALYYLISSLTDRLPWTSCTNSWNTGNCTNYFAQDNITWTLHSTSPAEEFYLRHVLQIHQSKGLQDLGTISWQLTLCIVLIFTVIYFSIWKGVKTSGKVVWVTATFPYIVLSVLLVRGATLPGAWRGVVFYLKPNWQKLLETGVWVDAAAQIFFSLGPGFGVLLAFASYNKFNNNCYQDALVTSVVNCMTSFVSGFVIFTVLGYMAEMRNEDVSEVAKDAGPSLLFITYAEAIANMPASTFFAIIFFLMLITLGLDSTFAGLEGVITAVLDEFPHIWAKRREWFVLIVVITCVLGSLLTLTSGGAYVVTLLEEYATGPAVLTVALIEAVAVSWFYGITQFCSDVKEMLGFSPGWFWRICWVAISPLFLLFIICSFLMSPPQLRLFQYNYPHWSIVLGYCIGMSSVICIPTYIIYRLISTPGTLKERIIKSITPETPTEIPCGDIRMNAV
Assay: Inhibition of serotonine (5-HT) reuptake in synaptosomes
Collected IC50 values appear next to each entry.
Write the value in nM as a bare number.

The examples below pair each entry with its known result.
{"COMPOUND": "Clc1ccc(N2CC3CCCC(C2)N3)cc1Cl", "IC50 [nM]": 0.69}
{"COMPOUND": "COc1ccc2cc(N3CC4CCCC(C3)N4C)ccc2c1", "IC50 [nM]": 8.1}

As a next step, examine the compound that follows.
Report IC50 for CN1C2CCCC1CN(c1ccc3cc(O)ccc3c1)C2 tested on reuptake of serotonine (5-HT) in synaptosomes (Rattus norvegicus).
7.9
